Tested on: Canis familiaris
experimentDescription: Inotropic activity determined by evaluating the % change in contractile force (CF) of right ventricle at a dose of 300 ug/kg administered intravenously […]
Type: functional, Canis lupus familiaris, Heart right ventricle
endpoint: Change of CF (%)
Reply with just the number (in %).

Task: # lookup: Change of CF of "CCc1cc(O)nnc1-c1ccc(Nc2ccncc2)cc1.Cl"
Output: 2.8

Task: Okay, and "Cc1cc(O)nnc1-c1ccc(Nc2ccncc2)cc1.Cl" ?
Output: -1.1

Task: Field entry: "Nc1cc(-c2ccncc2)c[nH]c1=O"
Output: 22.4

Task: What about CCC1CC(=O)NN=C1c1ccc(Nc2ccncc2)cc1.Cl (stereo not given) ?
Output: 35.7

Task: Thanks! And "CN(c1ccncc1)c1ccc(C2=NNC(=O)CC2)cc1.Cl" ?
Output: 20

---

System: Canis familiaris
experimentDescription: Inotropic activity determined by evaluating the % change in Cardiac out put (CO)at a dose of 100 ug/kg administered intravenously […]
Assay type: functional, Canis lupus familiaris
I'd appreciate it if you could supply Change of CO values for the items below.
Field: numeric (%). Do not append units.

Task: Can you share its Change of CO? I mean this compound: "O=C1CCC(c2ccc(-n3ccnc3)cc2)=NN1"
Output: 35.5

Task: Quick one: CC1CC(=O)NN=C1c1ccc(N(C)c2ccncc2)cc1.Cl (stereo unspecified)
Output: 13.3

Task: Do the same for "Cl.Oc1ccc(-c2ccc(Nc3ccncc3)cc2)nn1" please
Output: 7.7

Task: // same read-out, input: CC1CC(c2ccc(Nc3ccncc3)cc2)=NNC1=O.Cl (stereo unspecified)
Output: 23.3

Task: Also "CN(c1ccncc1)c1ccc(C2=NNC(=O)CC2)cc1.Cl" ?
Output: 5.9

Task: Same question for "Nc1cc(-c2ccncc2)c[nH]c1=O" please.
Output: 1.9

---

System: Canis familiaris
experimentDescription: Inotropic activity determined by evaluating the % change in Diastolic Blood Pressure (DBP) at a dose of 100 ug/kg administered intravenously […]
Type: functional, Canis lupus familiaris
endpoint: Change of DBP (%)
Give a bare numeral; the unit % is implied.

Task: Field request: Change of DBP | item: "Cl.Oc1ccc(-c2ccc(Nc3ccncc3)cc2)nn1"
Output: -27.6

Task: How about CC1CC(=O)NN=C1c1ccc(N(C)c2ccncc2)cc1.Cl (centres undefined) ?
Output: -13.9

Task: And "CN(c1ccc(C2=NNC(=O)CC2)cc1)c1ccccn1.Cl" ?
Output: -17.8

Task: Please answer likewise for "Cl.O=C1CCC(c2ccc(Nc3ccccn3)cc2)=NN1"
Output: -25.5

Task: Query Nc1cc(-c2ccncc2)c[nH]c1=O [INAMRINONE] next
Output: -4.7

Task: Here is the next compound: O=C1CCC(c2ccc(-n3ccnc3)cc2)=NN1 [IMAZODAN]
Output: -28.3

Task: Also "CN(c1ccncc1)c1ccc(C2=NNC(=O)CC2)cc1.Cl" ?
Output: -4

Task: Same question for CCC1CC(=O)NN=C1c1ccc(Nc2ccncc2)cc1.Cl (centres undefined) please.
Output: -15.1

Task: Next: CC1CC(c2ccc(Nc3ccncc3)cc2)=NNC1=O.Cl (centres undefined)
Output: -26.1

---

Tested on: Canis familiaris
experimentDescription: Inotropic activity determined by evaluating the % change in Cardiac out put (CO)at a dose of 10 ug/kg administered intravenously […]
Format: functional, Canis lupus familiaris
Assign Change of CO to each entry below.
Write the number in % without appending the unit.

Task: So what's the measured Change of CO for this one? "Cl.O=C1CCC(c2ccc(Nc3ccncc3)cc2)=NN1"
Output: 17.2

Task: Same question, O=C1CCC(c2ccc(-n3ccnc3)cc2)=NN1 [IMAZODAN] this time
Output: 11.2

Task: Now the compound "Cl.Oc1ccc(-c2ccc(Nc3ccncc3)cc2)nn1"
Output: 1.6

Task: Note, next up: CC1CC(=O)NN=C1c1ccc(Nc2ccccn2)cc1.Cl (stereo not given)
Output: 12.7

Task: Okay, and CC1CC(=O)NN=C1c1ccc(Nc2ccncc2)cc1.Cl (stereo not given) ?
Output: 24.5
